assay: Clearance in Sprague-Dawley rat at 1 mg/kg, iv; assay type: ADME, organism-based; design: dose 1 mg/kg, route intravenous; conditions: in vivo
READOUT TYPE: clearance

{"columns": ["TEST SMILES", "RESULT"],
 "data": [
  ["C[C@H]1CN(CC[C@H](C(=O)NCc2cc(C(F)(F)F)cc(C(F)(F)F)c2)C2CC2)CC[C@@]12C=Cc1ccccc12", "7.36 mL/min/kg"]
]}

###

biological target: C-C chemokine receptor type 2 (Homo sapiens, UniProt P41597); test: Displacement of [125I]MCP-1 from human CCR2b expressed in human monocyte cells; type: cell-based
Sequence (P41597 whole entry): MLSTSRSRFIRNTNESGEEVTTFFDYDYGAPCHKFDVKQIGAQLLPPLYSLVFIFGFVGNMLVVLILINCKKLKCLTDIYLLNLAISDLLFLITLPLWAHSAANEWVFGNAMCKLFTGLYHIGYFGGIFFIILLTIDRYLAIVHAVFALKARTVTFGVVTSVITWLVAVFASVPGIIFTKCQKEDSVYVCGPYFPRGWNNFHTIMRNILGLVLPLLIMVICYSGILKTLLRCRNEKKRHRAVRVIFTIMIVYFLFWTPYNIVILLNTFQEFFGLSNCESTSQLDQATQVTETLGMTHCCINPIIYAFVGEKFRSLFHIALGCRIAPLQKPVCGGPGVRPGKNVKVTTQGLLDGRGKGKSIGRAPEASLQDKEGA
pIC50: −log10 of the molar value.
Label satisfied for high-side pIC50 (at or above 7) and not satisfied for low-side pIC50 (below it).

{"columns": ["TEST SMILES", "CLASSIFICATION"],
 "data": [
  ["C=CC[C@H](CCN1CCC(c2ccccc2)CC1)C(=O)NCc1cc(C(F)(F)F)cc(C(F)(F)F)c1", "not satisfied"],
  ["C[C@H]1CN(CC[C@@H](C(=O)NCc2cc(C(F)(F)F)cc(C(F)(F)F)c2)C2CC2)CC[C@@]12C=Cc1ccccc12", "satisfied"],
  ["C[C@H]1CN(CC[C@H](C(=O)NCc2cc(C(F)(F)F)cc(C(F)(F)F)c2)C2CCC2)CC[C@@]12C=Cc1ccccc12", "satisfied"]
]}

###

biological target: C-C chemokine receptor type 2 (Homo sapiens, UniProt P41597); assay: Inhibition of [125I]MCP-1 binding to human CCR2b expressed in CHO cells at 1 uM; assay type: cell-based
Sequence (P41597 whole entry, looked up): as the sequence (P41597 whole entry) above
inhibition listing for selected compounds.

{"columns": ["COMPOUND", "inhibition [%]"],
 "data": [
  ["O=C(NCc1cc(C(F)(F)F)cc(C(F)(F)F)c1)C(CCN1CCC2(C=Cc3ccccc32)CC1)NS(=O)(=O)c1ccccc1 (configuration not stated)", 7],
  ["CC(=O)Nc1ncc(S(=O)(=O)NC(CCN2CCC3(C=Cc4ccccc43)CC2)C(=O)NCc2cc(C(F)(F)F)cc(C(F)(F)F)c2)s1 (configuration not stated)", 45],
  ["NC(CCN1CCC2(C=Cc3ccccc32)CC1)C(=O)NCc1cc(C(F)(F)F)cc(C(F)(F)F)c1 (configuration not stated)", 33],
  ["COC(=O)C[C@@H](CCN1CCC(c2ccccc2)CC1)C(=O)NCc1cc(C(F)(F)F)cc(C(F)(F)F)c1", 38],
  ["COC(=O)C[C@H](CCN1CCC(c2ccccc2)CC1)C(=O)NCc1cc(C(F)(F)F)cc(C(F)(F)F)c1", 42],
  ["O=CNC(CCN1CCC2(C=Cc3ccccc32)CC1)C(=O)NCc1cc(C(F)(F)F)cc(C(F)(F)F)c1 (configuration not stated)", 25],
  ["O=C(NCc1cc(C(F)(F)F)cc(C(F)(F)F)c1)C(CCN1CCC2(C=Cc3ccccc32)CC1)NS(=O)(=O)c1cccs1 (configuration not stated)", 20]
]}

###

assay: Cmax in Sprague-Dawley rat at 3 mg/kg, po; format: ADME, organism-based; set-up: dose 3 mg/kg, route oral; conditions: in vivo

{"columns": ["TEST SMILES", "Cmax"],
 "data": [
  ["C[C@H]1CN(CC[C@H](C(=O)NCc2cc(C(F)(F)F)cc(C(F)(F)F)c2)C2CC2)CC[C@@]12C=Cc1ccccc12", "1.58 µM"]
]}

###

molecular target: C-C chemokine receptor type 2 (Homo sapiens, UniProt P41597); assay: Displacement of [125I]MCP-1 from human CCR2b expressed in CHO cells; type: cell-based
# maps each entry to its IC50

{"columns": ["COMPOUND", "TESTED TARGET", "READOUT UNIT", "IC50"],
 "data": [
  ["CCC[C@H](CCN1CCC(c2ccccc2)CC1)C(=O)NCc1cc(C(F)(F)F)cc(C(F)(F)F)c1", "C-C chemokine receptor type 2 (Homo sapiens, UniProt P41597)", "nM", 126],
  ["O=C(NCc1cc(C(F)(F)F)cc(C(F)(F)F)c1)[C@@H](CCN1CCC2(C=Cc3ccccc32)CC1)C1CC1", "C-C chemokine receptor type 2 (Homo sapiens, UniProt P41597)", "nM", 98],
  ["O=C(NCc1cc(C(F)(F)F)cc(C(F)(F)F)c1)C(CCN1CCC2(C=Cc3ccccc32)CC1)NS(=O)(=O)C(F)(F)F (stereo not drawn)", "C-C chemokine receptor type 2 (Homo sapiens, UniProt P41597)", "nM", 125]
]}

###

target: C-C chemokine receptor type 2 (Homo sapiens); assay: Displacement of [125I]MCP-1 from human CCR2b expressed in human monocyte cells; assay type: cell-based
pIC50: −log10 of the molar value.

{"columns": ["COMPOUND", "pIC50"],
 "data": [
  ["CC(C)[C@@H](CCN1CCC2(C=Cc3ccccc32)CC1)C(=O)NCc1cc(C(F)(F)F)cc(C(F)(F)F)c1", 7.14],
  ["C[C@@H](CCN1CCC2(C=Cc3ccccc32)CC1)C(=O)NCc1cc(C(F)(F)F)cc(C(F)(F)F)c1", 7.07],
  ["CC(=O)N1CCCC(C(CCN2CCC3(C=Cc4ccccc43)CC2)C(=O)NCc2cc(C(F)(F)F)cc(C(F)(F)F)c2)C1 (stereo not given)", 7.10],
  ["O=C(NCc1cc(C(F)(F)F)cc(C(F)(F)F)c1)[C@@H](CCN1CCC(c2ccccc2)CC1)C1CC1", 6.89],
  ["O=C(NCc1cc(C(F)(F)F)cc(C(F)(F)F)c1)C(CCN1CCC2(C=Cc3ccccc32)CC1)C1CCCCC1 (stereo not given)", 7.14]
]}
